Tgt: Rap guanine nucleotide exchange factor 3 (Homo sapiens) (UniProt O95398)
Sequence (O95398 whole entry, looked up): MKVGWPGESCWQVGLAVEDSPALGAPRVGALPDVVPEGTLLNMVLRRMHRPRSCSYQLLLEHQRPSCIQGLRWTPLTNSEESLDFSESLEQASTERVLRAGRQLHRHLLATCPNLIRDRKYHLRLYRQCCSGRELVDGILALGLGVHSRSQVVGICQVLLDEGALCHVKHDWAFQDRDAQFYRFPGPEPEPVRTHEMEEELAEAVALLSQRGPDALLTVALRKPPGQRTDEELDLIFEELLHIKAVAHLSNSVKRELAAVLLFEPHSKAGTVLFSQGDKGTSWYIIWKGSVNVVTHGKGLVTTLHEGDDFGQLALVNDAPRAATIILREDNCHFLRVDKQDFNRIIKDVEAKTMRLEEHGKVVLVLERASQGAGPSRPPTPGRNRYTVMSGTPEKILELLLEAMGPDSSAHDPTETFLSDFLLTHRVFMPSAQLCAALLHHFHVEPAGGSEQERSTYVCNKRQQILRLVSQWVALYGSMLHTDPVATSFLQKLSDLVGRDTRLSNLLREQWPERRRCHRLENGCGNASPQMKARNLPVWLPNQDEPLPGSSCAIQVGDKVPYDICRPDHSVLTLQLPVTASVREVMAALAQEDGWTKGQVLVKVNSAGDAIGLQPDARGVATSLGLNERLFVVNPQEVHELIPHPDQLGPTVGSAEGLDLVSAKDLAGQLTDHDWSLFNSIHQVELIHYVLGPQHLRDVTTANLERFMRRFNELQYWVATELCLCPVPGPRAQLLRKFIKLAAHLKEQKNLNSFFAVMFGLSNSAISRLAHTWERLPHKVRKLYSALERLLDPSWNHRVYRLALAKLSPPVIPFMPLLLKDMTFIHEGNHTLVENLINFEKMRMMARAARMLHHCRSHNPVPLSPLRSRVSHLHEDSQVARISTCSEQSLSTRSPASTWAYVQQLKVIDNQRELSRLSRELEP
Procedure text: Counterscreen qHTS for antagonist of cAMP-regulated guanine nucleotide exchange factor 3 (EPAC1) (AID 1645888);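 further: fluorescence loss as bound BODIPY-GDP is released from Rap1B; % of control where 0% means no effect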
Run conditions: Rap1B-BODIPY-GDP nucleotide exchange, fluorescence; series mostly up to 154 µM
Inconclusive results are not listed. The source made the active and inactive calls. The call rests on the fitted dose curve; in most records, active means well fitted inhibition curve with a large enough effect; inconclusive means small, poorly fitted or top-dose-only effect; inactive means no such curve, though single readings can be large or run the other way.
Measured parameter: activity change, negative = inhibition

Consider the reported activity change, negative = inhibition for these compounds:
COc1ccc(C(Sc2ccccc2)c2ccccc2)cc1OC (configuration not stated)
inactive
CCCc1nn2c(=O)cc(COC(=O)c3cccc(NC(=O)CCc4ccccc4)c3)nc2s1
inactive
CCN(CC)S(=O)(=O)c1c(Br)cc(C)cc1Br
-9.59% [at 30.8 µM] (inactive)
CN(C)S(=O)(=O)c1cccc(-c2nn(-c3ccccc3)cc2/C=C2\SC(=S)NC2=O)c1
inactive
CNc1c(-n2cc(C(=O)OC)c(C(=O)OC)c2C(=O)OC)c(=O)n(C)c(=O)n1C
inactive
Cc1cccc(NC(=S)NC(=O)/C=C/c2ccco2)c1
inactive

Please give activity change, negative = inhibition for each item listed below.
1. CCc1ccccc1C1=CC(=O)C[C@H](c2ccc(OC)cc2)C1
2. CCOc1ccc(/C=C/C(=O)c2cc(Br)ccc(=O)c2O)cc1
3. Cc1ccccc1-c1nc(CS(=O)(=O)CC(=O)N(C)C2CCCCC2)c(C)o1
4. COCCNC(=O)CS(=O)Cc1nc(-c2ccc(Cl)cc2)oc1C (configuration not stated)
5. Cc1ccc(NC(=O)c2c(NC(=O)C(F)(F)F)sc3c2CCCCC3)cc1
6. COC(=O)CSc1nc2c(c(=O)n(C)c(=O)n2C)n1CCCc1ccccc1
7. COc1ccc(NC(=O)c2c(-c3ccccc3)c(-c3ccccc3)nn(C)c2=O)cc1OC
8. CCOC(=O)c1cc2n(c1N)-c1ccccc1C2=O

inactive
inactive
inactive
7.48% [at 30.8 µM] (inactive)
inactive
-3.64% [at 30.8 µM] (inactive)
inactive
inactive

Batch of 3 compounds: report activity change, negative = inhibition for each.
1. Oc1ccc(-c2c(-c3ccsc3)sc3ccccc23)cc1
2. Cc1ccn2cc(CNC(=O)c3cccs3)nc2c1
3. CCCCN1C(=O)C(CC(=O)NC2CCCCC2)CC(C(=O)N2CCCCCC2)=C1C (configuration not stated)

["-8.26% [at 30.8 µM] (inactive)", "inactive", "-2.29% [at 30.8 µM] (inactive)"]

* * *

Record form. Attribute: Potency. Fill in for each entry.
Tgt: Rap guanine nucleotide exchange factor 3 (Homo sapiens) (UniProt O95398)
Procedure text: Counterscreen qHTS for agonist of cAMP-regulated guanine nucleotide exchange factor 3 (EPAC1) (AID 1645889); further: potency means the concentration at half of the fitted maximal effect; nearly all actives have a fitted effect of over 40% in size
Run conditions: EPAC1 Rap1B-BODIPY-GDP exchange, fluorescence; series mostly up to 154 µM
Results filed as inconclusive are left out. The source made the active and inactive calls. Calls come from the whole dose curve; as a rule, active = well fitted activation curve with a large enough effect; inconclusive = small, poorly fitted or top-dose-only effect, or another doubt; inactive = no such curve, though single readings can be large or run the other way.

Example entries begin here.
Cc1cc2ccccn2c1C(=O)c1ccc(Cl)cc1
0.141 µM (active)
Cc1cccc(NC(=O)c2sc3nc(-c4cc5ccc(O)cc5oc4=O)[nH]c(=O)c3c2C)c1
50.1 µM (active)
CCN(CC)c1ccc2oc(=O)c(C)nc2c1
39.8 µM (active)

Value sought for every listed compound: Potency.
1. CCN1C(=O)/C(=C/C=C2/SCCN2C)SC1=S
2. N#C/C(=C/c1ccc(N2CCOCC2)o1)c1nc2ccccc2[nH]1
3. CCN1C/C(=C/c2ccc(N3CCOCC3)cc2)C(=O)/C(=C/c2ccc(N3CCOCC3)cc2)C1
4. O=c1oc2cc(O)ccc2cc1-c1nc2ccccc2o1

1: 11.2 µM (active); 2: 63.1 µM (active); 3: 39.8 µM (active); 4: 70.8 µM (active)

Here are 2 compounds. What values of Potency were reported for them?
1. Cc1[nH]n(-c2ccccc2)c(=O)c1C(c1cc(Cl)ccc1O)c1c(C)[nH]n(-c2ccccc2)c1=O
2. O/C=c1\ccc2cccc3nc(C(F)(F)F)nc1c23

1: 2.51 µM (active); 2: 39.8 µM (active)

Respectfully, I request Potency for each entry included below.
1. Cc1cc(=O)n(C2CCS(=O)(=O)C2)[nH]1 (centres undefined)
2. CC[n+]1c(/C=C/C=C/N(C(C)=O)c2ccccc2)sc2cc(OC)ccc21
3. CCOC(=O)c1c(NC(=O)c2ccc(S(=O)(=O)N(C)C3CCCCC3)cc2)sc2c1CCN(C(C)C)C2
4. CN1CCC/C1=C/C=C1\SC(=S)NC1=O
5. Nc1ccc(-c2c3ccc(=O)cc-3oc3cc(O)ccc23)c(C(=O)O)c1

1: 4.47 µM (active); 2: 50.1 µM (active); 3: 20 µM (active); 4: 39.8 µM (active); 5: 31.6 µM (active)

Value source: PubChem BioAssay (NCATS)
